Parameter IRF reporter: see the listing below.
System: RAW-Dual (murine macrophage reporter line)
experiment-summary: IRF reporter (Lucia luciferase) activity fold change vs agonist alone; higher = enhanced IRF activity
conditions: modulator concentration 10 µM; agonist: MPLA […]
When you answer, write just the number.

Reported IRF reporter ( "Cc1cn([C@@H]2C[C@@H](O)[C@H](CO)O2)c(=O)[nH]c1=O" ) = 0.82

GET /value?item= "CCS(=O)(=O)N1CC(CC#N)(n2cc(-c3ncnc4[nH]ccc34)cn2)C1" &field=IRF reporter returns 0.517

Entry under test: "Cc1ccc(F)c(NC(=O)Nc2ccc(-c3cccc4[nH]nc(N)c34)cc2)c1" . Its IRF reporter was 1.19

Measured IRF reporter, "CC(C)c1ccc2oc3nc(N)c(C(=O)O)cc3c(=O)c2c1" : 1.16

Memo: "CN1CCC[C@@H]1CCO[C@](C)(c1ccccc1)c1ccc(Cl)cc1.O=C(O)/C=C/C(=O)O" , reported IRF reporter: 1.63

// "O=c1c2ccccc2n(Cc2nc(-c3ccc(F)c(F)c3)no2)c(=O)n1C1CC1" : IRF reporter value = 1.07

Memo: COC(=O)c1cccc(-c2ccc(C=NN3C(=O)C4C5C=CC(CC5)C4C3=O)o2)c1 (configuration not stated) , reported IRF reporter: 1.36

compound "NC(=O)CC[C@@H](N)C(=O)O" , IRF reporter observed: 1.23

Lab note: measured IRF reporter of "O=c1oc2ccccc2c(O)c1Cc1c(O)c2ccccc2oc1=O" was 0.844

Documented IRF reporter of "CC[C@@]1(O)C(=O)OCc2c1cc1n(c2=O)Cc2cc3c(CN(C)C)c(O)ccc3nc2-1.Cl" : 3.26

Summary for this compound, "Cc1cc(C)n(CCC(=O)N2CCc3nc4ccc(F)cn4c(=O)c3C2)n1" : IRF reporter is 1.21

---

System: RAW-Dual (murine macrophage reporter line)
experiment-summary: viability score (confluency relative to resting cells, overnight) (fraction); higher = more viable, active = viable (0.7 or more)
conditions: modulator concentration 10 µM
result-type: viability score
No unit in the answer, please; the number alone is enough.

Lab note: "O=C(COC(=O)c1ccc(Cl)c([N+](=O)[O-])c1)c1ccc(Cl)cc1" gave viability score of 1.01

***
The reported viability score of the compound "O=C(Nc1ccc(F)c([N+](=O)[O-])c1)c1cccs1" was 0.975

For reference, reported viability score for "CC#C[C@]1(O)CC[C@H]2[C@@H]3CCC4=CC(=O)CCC4=C3[C@@H](c3ccc(N(C)C)cc3)C[C@@]21C" stands at 1

For "COC(=O)NN=Cc1cccs1" the compound record lists viability score as 0.997

Record summary for "CCN1CCN(S(=O)(=O)c2ccc(Oc3ccccc3)cc2)CC1" : reported viability score = 0.996

Looking up "CCCN(CCC)CCc1cccc2c1CC(=O)N2.Cl" , I found its viability score recorded as 0.997

Lookup result for "Cc1[nH]c2ccc(Br)cc2c(=O)c1CN1CCOCC1" ; measured viability score: 0.995

Looking up O=C(NCCC(CCO)c1ccccc1)Nc1c(F)cccc1F (stereo unspecified) , I see its viability score listed as 0.98

compound "NCC(=O)O" , viability score observed: 1

---

System: RAW-Dual (murine macrophage reporter line)
experiment-summary: NF-kB reporter (SEAP) activity fold change vs agonist alone; higher = enhanced NF-kB activity
conditions: modulator concentration 10 µM; agonist: LPS 0.1 ug/mL
result-type: NF-kB reporter
Form rule: numeric answer, no unit written next to it.

Some molecules with recorded NF-kB reporter:
// O=C(Nc1ccc(Cl)cc1)C(Sc1ccccc1)c1ccccc1 (stereo unspecified) : NF-kB reporter value = 1.02

Kindly note the recorded NF-kB reporter for NCC1OC(OC2C(CO)OC(OC3C(O)C(N)CC(N)C3OC3OC(CN)C(O)C(O)C3N)C2O)C(N)C(O)C1O.O=S(=O)(O)O (stereo unspecified) , which is 1.01

Input COC1(CNC(=O)C2CCN(S(C)(=O)=O)CC2)CCSC1 (stereo unspecified) . Output NF-kB reporter: 0.875

Shift focus to the following entry.
The value of NF-kB reporter measured for the molecule "O=C(NC(=S)Nc1ccccc1C(F)(F)F)c1cccc(I)c1" turned out to be 0.989

---

Tested on: RAW-Dual (murine macrophage reporter line)
experiment-summary: NF-kB reporter (SEAP) activity fold change vs agonist alone; higher = enhanced NF-kB activity
conditions: modulator concentration 10 µM; agonist: CpG ODN 1826 0.5 ug/mL
Use 1 as the dividing line for NF-kB reporter, with the line itself on the yes (1) side and lower values as no (0).

These solved cases illustrate the format of a correct answer.
Prompt line: Does the compound CCOC(=O)C1=C(N)OC(C)=C(C(=O)OC)C1c1cccnc1 (stereo unspecified) have recorded NF-kB reporter that is 1 or more?
Response line: yes (1)

Prompt line: Check if NF-kB reporter >= 1 (inclusive). Item: "CCOC(=O)C1=C(C)NC(C)=C(C(=O)OCC)C1c1ccc(N(C)C)cc1"
Response line: yes (1)

Prompt line: Could you please find out whether O=C(NCC1(O)CCc2ccccc2C1)Nc1ccccc1C(F)(F)F (stereo unspecified) has NF-kB reporter that meets 1 or exceeds it?
Response line: no (0)

Others:
Prompt line: Could you please find out whether "CCSc1nc(-c2cccs2)cc(C(F)(F)F)c1C#N" has NF-kB reporter that meets 1 or exceeds it?
Response line: no (0)

Prompt line: Would you say COc1ccc(C(O)CN2CCN(c3cccc(C)c3C)CC2)cc1OC (stereo unspecified) shows NF-kB reporter at minimum 1?
Response line: no (0)

Prompt line: Test whether the compound "CS(=O)(=O)N(CC(=O)N1CCCCCC1)c1ccc(Cl)c(C(F)(F)F)c1" records NF-kB reporter of 1 or higher.
Response line: no (0)

Prompt line: # check: NF-kB reporter of CC(=O)Nc1ccc(S(=O)(=O)N2CCC(Oc3nc(C)cc(C)n3)C2)cc1 (stereo unspecified) is greater than or equal to 1
Response line: yes (1)

Prompt line: State whether the measured NF-kB reporter reaches 1, counting equality as reaching it, for "CC(=O)Nc1ccc(O)cc1"
Response line: no (0)

Prompt line: In plain terms: is recorded NF-kB reporter at least 1 for "COc1ccc(N(CC(=O)N2CCc3ccccc3C2)S(C)(=O)=O)cc1Cl" ?
Response line: yes (1)

Prompt line: Hi team, for "COc1ccc(C=NNC(=O)CSc2nnc(-c3ccccc3)n2-c2ccccc2)cc1OC" , is the recorded NF-kB reporter at or above 1?
Response line: yes (1)

Prompt line: Is it the case that "CN[C@H]1CC[C@@H](c2ccc(Cl)c(Cl)c2)c2ccccc21.Cl" has NF-kB reporter reaching or exceeding 1?
Response line: no (0)

---

Entries annotated with measured NF-kB reporter
Tested on: RAW-Dual (murine macrophage reporter line)
experiment-summary: NF-kB reporter (SEAP) activity fold change vs agonist alone; higher = enhanced NF-kB activity
conditions: modulator concentration 10 µM; agonist: MPLA […]
Just the number, please, no unit after it.

molecule "C[C@H](Cc1cc2c(c(C(N)=O)c1)N(CCCO)CC2)NCCOc1ccccc1OCC(F)(F)F" , NF-kB reporter observed: 1.03

// field: NF-kB reporter; key: "Cn1cc(-c2cc(CNC(=O)c3cncc(Br)c3)ccn2)cn1" ; value = 1.15

The recorded NF-kB reporter for entry "COc1ccc2sc(C)[n+](CCCS(=O)(=O)[O-])c2c1" equals 0.923

Form field NF-kB reporter, entry "O=C(O)CCC(=O)c1ccc(-c2ccccc2)cc1" : 0.87

Reported NF-kB reporter of O=C(C=Cc1ccccc1)NC(NC(=S)Nc1cccc2cccnc12)C(Cl)(Cl)Cl (stereo not given) : 0.624

For reference, reported NF-kB reporter for COc1ccc(S(=O)(=O)N2CCC(c3ccccc3)S(=O)(=O)CC2)cc1Cl (stereo not given) stands at 0.978

---

Tested on: RAW-Dual (murine macrophage reporter line)
experiment-summary: NF-kB reporter (SEAP) activity fold change vs agonist alone; higher = enhanced NF-kB activity
conditions: modulator concentration 10 µM; agonist: CpG ODN 1826 0.5 ug/mL
Classification field: Fulfilled = NF-kB reporter at or over 1; Not fulfilled = NF-kB reporter under 1.

Prompt line: Quick check: does "COc1ccc(-c2[nH]c(-c3cccc(OC)c3)nc2SCC(=O)NC2CCCC2)cc1" have NF-kB reporter greater than or equal to 1?
Response line: Not fulfilled

Prompt line: Decide: is the reported value of NF-kB reporter for "O=c1[nH]cc(F)c(=O)[nH]1" equal to or greater than 1?
Response line: Fulfilled

Let us examine a further case.
Prompt line: Assess whether reported NF-kB reporter for "N=C(N)NCCN1CCCCCCC1.O=S(=O)(O)O" sits at 1 or higher.
Response line: Fulfilled

---

Tested on: RAW-Dual (murine macrophage reporter line)
experiment-summary: IRF reporter (Lucia luciferase) activity fold change vs agonist alone; higher = enhanced IRF activity
conditions: modulator concentration 10 µM; agonist: MPLA […]
Mark 1 for reported IRF reporter of 1 or greater; mark 0 for anything smaller.

Prompt line: Please check the record "CCOC(=O)N1CCN(C(=O)C2CCN(Cc3ccc(C)o3)CC2)CC1" and state if its IRF reporter is at or above 1.
Response line: 1

Prompt line: Can "O=C(CSc1nc[nH]n1)NC(c1ccccc1)c1ccccc1" be said to have IRF reporter at or above 1?
Response line: 1

Prompt line: Is IRF reporter at least 1? Consider "Nc1ncnc2c1ncn2[C@@H]1O[C@H](CO)[C@@H](O)[C@H]1O"
Response line: 0

Prompt line: State whether the measured IRF reporter reaches 1, counting equality as reaching it, for "Cc1ccc(-n2nc(C(C)(C)C)cc2NC(=O)NCc2cc(F)ccc2Oc2ccc3c(cnn3CCO)c2)cc1"
Response line: 1

---
Prompt line: Tell me whether IRF reporter is at least 1 here: "COc1ccc(Nc2nc(Nc3ccc(F)cc3)nc(N3CCOCC3)n2)cc1OC"
Response line: 1

Prompt line: Does IRF reporter meet or surpass 1 for "Oc1ccc(N=Cc2ccccc2F)cc1" ?
Response line: 1
